Tested on: L1210 leukemia ip in BDF1 mice, survival T/C
EXPERIMENTAL_PROTOCOL: NCI In Vivo Anticancer Drug Screen. Data for tumor model L1210 Leukemia (intraperitoneal) in B6D2F1 (BDF1) mice
APPLIED_CONDITIONS: endpoint: mean survival time; dose: 400.0 mg/kg/injection; schedule: Q04DX002 (ip); vehicle: Klucel (hydroxypropylcellulose) (HPC); higher = longer survival
Toxic doses and inconclusive results are not listed.
READOUT_TYPE: T/C

Known value: L1210 leukemia ip in BDF1 mice, survival T/C T/C of the compound COc1ccc(-n2cccc2)cc1 equals 94 % of control

Known value: L1210 leukemia ip in BDF1 mice, survival T/C T/C of the compound CC(=O)OC1CCC2(C)C(=CCC3C2CCC2(C)c4c(c(-c5ccccc5)nn4-c4ccccc4)CC32)C1 (configuration not stated) equals 95 % of control

Known value: L1210 leukemia ip in BDF1 mice, survival T/C T/C of the compound CCCCCCCCCCCCCCOc1ccc(F)cc1F equals 96 % of control

Known value: L1210 leukemia ip in BDF1 mice, survival T/C T/C of the compound CCOC(=O)C1(C)Nc2ccc3ccccc3c2NC1=O (configuration not stated) equals 101 % of control

Known value: L1210 leukemia ip in BDF1 mice, survival T/C T/C of the compound Cc1cccc(NCC(=O)NN)c1C equals 113 % of control

Known value: L1210 leukemia ip in BDF1 mice, survival T/C T/C of the compound O=C(C[n+]1ccc(/C=N\O)cc1)c1ccc(-c2ccc(C(=O)C[n+]3ccc(/C=N/O)cc3)cc2)cc1 equals 92 % of control

Known value: L1210 leukemia ip in BDF1 mice, survival T/C T/C of the compound CC1CCN(C(=O)C(c2ccccc2)c2ccccc2)CC1 equals 101 % of control

Known value: L1210 leukemia ip in BDF1 mice, survival T/C T/C of the compound O=C(O)c1ccc(Cl)cc1F equals 97 % of control

Known value: L1210 leukemia ip in BDF1 mice, survival T/C T/C of the compound O=C1CCCCC1C(O)(C(=O)c1ccccc1)c1ccccc1 (configuration not stated) equals 100 % of control

Known value: L1210 leukemia ip in BDF1 mice, survival T/C T/C of the compound O=C(O)c1ccccc1S(=O)O equals 103 % of control

Known value: L1210 leukemia ip in BDF1 mice, survival T/C T/C of the compound O=C(O)c1ccccc1C(=O)NCc1ccc(Cl)cc1Cl equals 98 % of control

Known value: L1210 leukemia ip in BDF1 mice, survival T/C T/C of the compound CC(=O)OC(C1SCCCS1)C1CC2C=CC1C2 (configuration not stated) equals 105 % of control
